- test: intraperitoneal lethality (LD50)
- Format: in vivo
- test.settings: in vivo, ip; intraperitoneal
Where a name gives a salt, the structure may show the parent alone.
parameter: LD50

Reported LD50 for CCCN1CCC[C@H]2Cc3[nH]ncc3C[C@@H]21 (relative stereo) [dihydrochloride] was 100 to 300 mg/kg
